biological target: human CB2 receptors (Homo sapiens, UniProt P34972); construct: expressed in transfected cells; host or cells: HEK293; assay: human CB2 radioligand binding assay ([3H]CP 55,940 competition); conditions: human CB2 (Ki, nM), HEK293 membranes, 0.5 nM [3H]CP 55,940
Sequence (P34972 whole entry): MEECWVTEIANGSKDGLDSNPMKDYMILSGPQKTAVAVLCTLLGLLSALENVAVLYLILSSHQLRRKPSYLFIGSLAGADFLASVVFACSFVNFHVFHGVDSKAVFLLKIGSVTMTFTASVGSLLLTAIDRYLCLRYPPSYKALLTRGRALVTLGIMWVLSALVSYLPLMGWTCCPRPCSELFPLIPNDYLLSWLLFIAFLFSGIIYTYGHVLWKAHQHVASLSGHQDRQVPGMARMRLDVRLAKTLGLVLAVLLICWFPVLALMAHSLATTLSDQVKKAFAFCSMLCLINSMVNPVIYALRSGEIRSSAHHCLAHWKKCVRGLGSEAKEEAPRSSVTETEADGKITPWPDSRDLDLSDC
Ki strictly less than 20 nM = MET. Otherwise NOT MET.

Ask: In the record for Cn1c(C(C)(C)C)c/c(=N\C(=O)c2cc(C(F)(F)F)ccc2OCC(C)(C)O)n1CCCC(F)(F)F , is Ki less than 20 nM?
Result: NOT MET

Ask: In the record for Cn1c(C(C)(C)C)c/c(=N\C(=O)c2cc(C(F)(F)F)ccc2OCC(C)(C)OCc2ccccc2)n1C[C@H]1CCCO1 , is Ki less than 20 nM?
Result: NOT MET

Ask: In the record for Cn1c(C(C)(C)C)c/c(=N\C(=O)c2cc(C(F)(F)F)ccc2OCC(C)(C)O)n1CCC(F)(F)F , is Ki less than 20 nM?
Result: MET

Ask: In the record for Cn1c(C(C)(C)C)c/c(=N\C(=O)c2cc(C(F)(F)F)ccc2OCC(C)(C)O)n1CC1CCC1 , is Ki less than 20 nM?
Result: MET

Ask: In the record for CCCCCn1/c(=N/C(=O)c2cc(C(F)(F)F)ccc2OCC(C)(C)O)cc(C(C)(C)C)n1C , is Ki less than 20 nM?
Result: MET

Ask: In the record for Cn1c(C(C)(C)C)c/c(=N\C(=O)c2cc(C(F)(F)F)ccc2OC[C@@H]2CCN2S(C)(=O)=O)n1CC1CC1 , is Ki less than 20 nM?
Result: NOT MET

Ask: In the record for Cn1c(C(C)(C)C)c/c(=N\C(=O)c2cc(C(F)(F)F)ccc2OC[C@@H]2CCN2S(C)(=O)=O)n1C[C@H]1CCCO1 , is Ki less than 20 nM?
Result: NOT MET

###

molecular target: Rat CB1 (Rattus norvegicus); construct: expressed in transfected cells; host or cells: HEK; assay: rat CB1 cyclase functional assay (HitHunter cAMP); type: cell-based; conditions: Rat CB1 cyclase (EC50, nM), HEK cells, forskolin 37 μM
Sequence (P20272 whole entry): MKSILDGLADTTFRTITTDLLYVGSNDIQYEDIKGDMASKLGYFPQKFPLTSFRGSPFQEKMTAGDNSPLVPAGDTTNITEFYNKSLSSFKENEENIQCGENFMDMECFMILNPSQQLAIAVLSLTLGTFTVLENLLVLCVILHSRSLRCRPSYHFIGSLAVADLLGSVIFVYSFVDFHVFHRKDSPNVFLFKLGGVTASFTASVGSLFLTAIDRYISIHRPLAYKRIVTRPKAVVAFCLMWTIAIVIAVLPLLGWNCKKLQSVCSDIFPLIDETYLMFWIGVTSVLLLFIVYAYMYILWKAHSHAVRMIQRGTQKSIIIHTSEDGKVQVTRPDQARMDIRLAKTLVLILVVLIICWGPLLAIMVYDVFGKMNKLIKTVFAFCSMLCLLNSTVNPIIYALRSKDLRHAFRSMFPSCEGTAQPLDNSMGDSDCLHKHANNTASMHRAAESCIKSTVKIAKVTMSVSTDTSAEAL
Field: log10 EC50. Provide a value for each of the molecules that follow.
Recorded EC50 (log10, nM)

Ask: Using Rat CB1 (Rattus norvegicus) as the test system, report measured log10 EC50 of Cn1c(C(C)(C)C)c/c(=N\C(=O)c2cc(C(F)(F)F)ccc2NC[C@@H]2CCCO2)n1C[C@H]1CCCO1 [Example 21] .
Result: 2.95

Ask: Using Rat CB1 (Rattus norvegicus) as the test system, report measured log10 EC50 of Cn1c(C(C)(C)C)c/c(=N\C(=O)c2cc(C(F)(F)F)ccc2OC[C@H]2OCC[C@H]2F)n1C[C@H]1CCCO1 [Example 24] .
Result: 3.96

Ask: Using Rat CB1 (Rattus norvegicus) as the test system, report measured log10 EC50 of Cn1c(C(C)(C)C)c/c(=N\C(=O)c2cc(C(F)(F)F)ccc2NC[C@H]2CCCO2)n1C[C@H]1CCCO1 [Example 23] .
Result: 3.53

Ask: Using Rat CB1 (Rattus norvegicus) as the test system, report measured log10 EC50 of Cn1c(C(C)(C)C)c/c(=N\C(=O)c2cc(C(F)(F)F)ccc2OCC2CCS(=O)(=O)C2)n1C[C@H]1CCCO1 (stereo partly drawn) [Example 6] .
Result: 4.05

Ask: Using Rat CB1 (Rattus norvegicus) as the test system, report measured log10 EC50 of Cn1c(C(C)(C)C)c/c(=N\C(=O)c2cc(C(F)(F)F)ccc2OC[C@@H]2CCCO2)n1CC1CC1 [Example 27] .
Result: 3.53

Ask: Using Rat CB1 (Rattus norvegicus) as the test system, report measured log10 EC50 of Cn1c(C(C)(C)C)c/c(=N\C(=O)c2cc(C(F)(F)F)ccc2OC[C@@H]2CCN2)n1C[C@H]1CCCO1 [Example 2] .
Result: 4.05

Ask: Using Rat CB1 (Rattus norvegicus) as the test system, report measured log10 EC50 of Cn1c(C(C)(C)C)c/c(=N\C(=O)c2cc(C(F)(F)F)ccc2OCCNS(C)(=O)=O)n1C[C@H]1CCCO1 [Example 45] .
Result: 3.69

Ask: Using Rat CB1 (Rattus norvegicus) as the test system, report measured log10 EC50 of Cn1c(C(C)(C)C)c/c(=N\C(=O)c2cc(C(F)(F)F)ccc2OCC(C)(C)O)n1CC1CCC1 [Example 86] .
Result: 3.60

Ask: Using Rat CB1 (Rattus norvegicus) as the test system, report measured log10 EC50 of CC(C)(C)c1cn(C[C@H]2CCCO2)/c(=N/C(=O)c2cc(C(F)(F)F)ccc2OCCN2CCCC2)o1 [Example 77] .
Result: 3.41

Ask: Using Rat CB1 (Rattus norvegicus) as the test system, report measured log10 EC50 of CN1CCC[C@H]1COc1ccc(C(F)(F)F)cc1C(=O)/N=c1\oc(C(C)(C)C)cn1CC1CCC1 [Example 75] .
Result: 3.13

Ask: Using Rat CB1 (Rattus norvegicus) as the test system, report measured log10 EC50 of CN1CCC[C@H]1COc1ccc(C(F)(F)F)cc1C(=O)/N=C1\SC(C)(C)CN1C[C@H]1CCCO1 [Example 33] .
Result: 3.73

Ask: Using Rat CB1 (Rattus norvegicus) as the test system, report measured log10 EC50 of Cn1c(C(C)(C)C)c/c(=N\C(=O)c2cc(C(F)(F)F)ccc2OCC(C)(C)O)n1CC1CC1 [Example 71] .
Result: 3.63

Ask: Using Rat CB1 (Rattus norvegicus) as the test system, report measured log10 EC50 of CCCCn1/c(=N/C(=O)c2cc(C(F)(F)F)ccc2OCC(C)(C)O)cc(C(C)(C)C)n1C [Example 81] .
Result: 3.53
